Quick note: these are pIC50 numbers for system: NAALADase (Homo sapiens)
Sequence (Q04609 whole entry): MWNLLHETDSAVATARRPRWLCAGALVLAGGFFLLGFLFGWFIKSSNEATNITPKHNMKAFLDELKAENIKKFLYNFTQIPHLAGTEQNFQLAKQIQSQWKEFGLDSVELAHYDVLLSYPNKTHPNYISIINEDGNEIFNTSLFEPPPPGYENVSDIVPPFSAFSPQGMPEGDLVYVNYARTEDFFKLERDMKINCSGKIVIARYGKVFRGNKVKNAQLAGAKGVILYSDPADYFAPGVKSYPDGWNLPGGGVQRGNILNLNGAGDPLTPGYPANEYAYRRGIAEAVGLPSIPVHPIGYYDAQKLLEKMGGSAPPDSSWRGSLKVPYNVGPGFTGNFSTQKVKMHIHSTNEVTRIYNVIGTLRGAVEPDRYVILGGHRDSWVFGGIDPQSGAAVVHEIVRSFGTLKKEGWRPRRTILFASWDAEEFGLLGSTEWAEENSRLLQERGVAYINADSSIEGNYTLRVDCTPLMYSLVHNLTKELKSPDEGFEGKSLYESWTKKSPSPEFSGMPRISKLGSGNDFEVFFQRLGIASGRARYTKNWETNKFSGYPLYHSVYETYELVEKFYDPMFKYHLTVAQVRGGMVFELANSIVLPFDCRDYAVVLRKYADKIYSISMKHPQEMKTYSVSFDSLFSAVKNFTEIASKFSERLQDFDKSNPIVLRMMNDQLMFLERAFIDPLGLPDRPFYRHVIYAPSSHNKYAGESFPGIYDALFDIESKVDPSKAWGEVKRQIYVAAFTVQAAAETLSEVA
Scale for pIC50: -log10 of concentration given in mol/L; no unit attached.

Which pIC50 reading was recorded for the compound `O=C(O)c1c(CCS)c2ccccc2n1Cc1ccccc1` ? 4.92

Endpoint output: pIC50 of `O=C(O)c1ccc(Br)c(Cn2c(C(=O)O)c(CCS)c3ccccc32)c1` . Value? 7.27

Look at this compound and give its reported pIC50. `O=C(O)c1c(CCS)c2ccccc2n1-c1ccccc1` 5.32

Value lookup for pIC50; key = `CC(C)(C)c1cc(Cn2c(C(=O)O)c(CCS)c3ccccc32)cc(C(=O)O)c1` 7.46

pIC50 for `O=C(O)c1[nH]c2ccccc2c1CCS` ? 5.91

Recorded pIC50 for `O=C(O)c1ccc(Cn2c(C(=O)O)c(CCS)c3ccccc32)cc1` , please? 7.18

The reported numbers originate from patent US7148250B2.
